- assay-name: qHTS Assay for Identifying a Potential Treatment of Ataxia-Telangiectasia: Secondary assay (no NCS) hit validation;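 also: phosphorylated KAP1 signal as a proxy for ATM-like kinase activity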; as to activation: 0% is about no effect
- test-parameters: A-T patient fibroblasts, AlphaLISA, no DNA damage added, 90 min; series mostly up to 76.9 µM
Records with an inconclusive call do not appear. Activity calls are given as the source filed them. Calls follow the shape of the dose curve; as a rule, active = well fitted activation curve with a large enough effect; inconclusive = small, poorly fitted or top-dose-only effect; inactive = no such curve, though single readings can be large or run the other way.
Please answer using one outcome listed in 1 = active, 0 = inactive

Illustrative cases are given below, each with its answer.
[
  {
    "molecule": "CN(Cc1ccccc1)C(=O)c1cccc(N2C(=O)C3CC=CCC3C2=O)c1 (stereo unspecified)",
    "qualitative-label": 0
  },
  {
    "molecule": "COc1ccccc1C(=O)NC(=O)Nc1cccc(Cl)c1",
    "qualitative-label": 0
  },
  {
    "molecule": "COc1ccc2nc(NCCCNC(=O)c3cc(OC)c(OC)c(OC)c3)c(C#N)cc2c1",
    "qualitative-label": 0
  },
  {
    "molecule": "CC1CCCC(C)N1CCCNC(=O)Cn1ncc2c3ccccc3n(C)c2c1=O (stereo unspecified)",
    "qualitative-label": 1
  },
  {
    "molecule": "CCC(C)Nc1nc(N)c([N+](=O)[O-])c(NCCO)n1 (stereo unspecified)",
    "qualitative-label": 0
  },
  {
    "molecule": "COc1ccc(Cl)cc1NC(=O)C[n+]1cccc(C)c1",
    "qualitative-label": 0
  },
  {
    "molecule": "CCN(c1ccccc1)S(=O)(=O)c1ccc(Cl)c(C(=O)N(CC2CCCO2)C2CCS(=O)(=O)C2)c1 (stereo unspecified)",
    "qualitative-label": 1
  },
  {
    "molecule": "C=CS(=O)(=O)c1sc(Cl)c(N2CCOCC2)c1[N+](=O)[O-]",
    "qualitative-label": 0
  },
  {
    "molecule": "COc1ccc(C(=O)CSc2nc3ncccc3[nH]2)cc1OC",
    "qualitative-label": 0
  },
  {
    "molecule": "Cc1cc2nc3ccc(=[N+](C)C)cc-3sc2cc1N",
    "qualitative-label": 0
  }
]

We next turn to a different molecule, shown below.
Query: // param item: CCC(=O)NC1=C(Cl)C(=O)C(NC(=O)CC)=C(Cl)C1=O ; yields the recorded call
Response: 0

Ref: PubChem BioAssay AID493201
